Source of measurements: BindingDB's records for doi:10.1021/bi051886s

In this section, each of the compounds is paired with its reported Ki.
# Target or test system: Dimer of Gag-Pol polyprotein [482-580,I502K,I528M,T553A] (Human immunodeficiency virus 1, UniProt P24740, I502K/I528M/T553A)
# Construct: 482-580
# Method summary: Protease Inhibition Assay
# Test settings: pH 4.7; 37 °C
Measurement type: Ki

INSERT INTO assay_data (smi, endpoint_value) VALUES
  ('CC(C)(C)NC(=O)[C@@H]1CN(Cc2cccnc2)CCN1C[C@@H](O)C[C@@H](Cc1ccccc1)C(=O)N[C@H]1c2ccccc2C[C@H]1O', '6900 pM'),
  ('COC(=O)N[C@H](C(=O)N[C@@H](Cc1ccccc1)[C@@H](O)CN(Cc1ccc(-c2ccccn2)cc1)NC(=O)[C@@H](NC(=O)OC)C(C)(C)C)C(C)(C)C', '240 pM'),
  ('Cc1cccc(C)c1OCC(=O)N[C@@H](Cc1ccccc1)[C@@H](O)C[C@H](Cc1ccccc1)NC(=O)[C@H](C(C)C)N1CCCNC1=O', '19 pM'),
  ('CC(C)(C)NC(=O)[C@@H]1C[C@@H]2CCCC[C@@H]2CN1C[C@@H](O)[C@H](Cc1ccccc1)NC(=O)[C@H](CC(N)=O)NC(=O)c1ccc2ccccc2n1', '1800 pM'),
  ('CC(C)CN(C[C@@H](O)[C@H](Cc1ccccc1)NC(=O)O[C@H]1CCOC1)S(=O)(=O)c1ccc(N)cc1', '400 pM');

---

In this section, each of the compounds is paired with its reported Ki.
# Target or test system: Dimer of Gag-Pol polyprotein [482-580,I502K,I528M,T553A,V564F] (Human immunodeficiency virus 1, UniProt P24740, I502K/I528M/T553A/V564F)
# Construct: 482-580
# Method summary: Protease Inhibition Assay
Measurement type: Ki (nM)

INSERT INTO results (compound, units_label, endpoint_value) VALUES
  ('CC(C)(C)NC(=O)[C@@H]1C[C@@H]2CCCC[C@@H]2CN1C[C@@H](O)[C@H](Cc1ccccc1)NC(=O)[C@H](CC(N)=O)NC(=O)c1ccc2ccccc2n1 [SQV]', 'nM', 0.43),
  ('Cc1cccc(C)c1OCC(=O)N[C@@H](Cc1ccccc1)[C@@H](O)C[C@H](Cc1ccccc1)NC(=O)[C@H](C(C)C)N1CCCNC1=O', 'nM', 0.48),
  ('CC(C)CN(C[C@@H](O)[C@H](Cc1ccccc1)NC(=O)O[C@H]1CCOC1)S(=O)(=O)c1ccc(N)cc1 [VX-478]', 'nM', 1.2),
  ('COC(=O)N[C@H](C(=O)N[C@@H](Cc1ccccc1)[C@@H](O)CN(Cc1ccc(-c2ccccn2)cc1)NC(=O)[C@@H](NC(=O)OC)C(C)(C)C)C(C)(C)C [CGP 73547]', 'nM', 0.57),
  ('CC(C)(C)NC(=O)[C@@H]1CN(Cc2cccnc2)CCN1C[C@@H](O)C[C@@H](Cc1ccccc1)C(=O)N[C@H]1c2ccccc2C[C@H]1O [Crixivan]', 'nM', 108);

---

# Target or test system: Dimer of Gag-Pol polyprotein [501-599] (Human immunodeficiency virus 1, UniProt P03367)
# Construct: 501-599
# Method summary: Protease Inhibition Assay
# Test settings: pH 4.7; 37 °C
Measurement type: Ki

INSERT INTO results (smi, endpoint_value) VALUES
  ('Cc1cccc(C)c1OCC(=O)N[C@@H](Cc1ccccc1)[C@@H](O)C[C@H](Cc1ccccc1)NC(=O)[C@H](C(C)C)N1CCCNC1=O', '0.05 nM');

---

In this section, each of the compounds is paired with its reported pKi.
# Target or test system: Dimer of Gag-Pol polyprotein [501-599,V583F] (Human immunodeficiency virus 1, UniProt P03367, V583F)
# Construct: 501-599
# Method summary: Protease Inhibition Assay
# Test settings: pH 4.7; 37 °C
pKi: −log10 of the molar value.
Measurement type: pKi

INSERT INTO results (smi, endpoint_value) VALUES
  ('COC(=O)N[C@H](C(=O)N[C@@H](Cc1ccccc1)[C@@H](O)CN(Cc1ccc(-c2ccccn2)cc1)NC(=O)[C@@H](NC(=O)OC)C(C)(C)C)C(C)(C)C', 9.25),
  ('Cc1cccc(C)c1OCC(=O)N[C@@H](Cc1ccccc1)[C@@H](O)C[C@H](Cc1ccccc1)NC(=O)[C@H](C(C)C)N1CCCNC1=O', 9.70);

---

# Target or test system: Dimer of Gag-Pol polyprotein [490-588,L523I,E525D,M526I,I544V,L553H,H559K,L579M] (Human immunodeficiency virus 1, UniProt P05959, E525D/H559K/I544V/L523I/L553H/L579M/M526I)
# Construct: 490-588
# Method summary: Protease Inhibition Assay
The label met is reserved for Ki strictly under 1 nM; not met covers values equal to or above it.

INSERT INTO results (smi, assigned_class) VALUES
  ('Cc1c(O)cccc1C(=O)N[C@@H](CSc1ccccc1)[C@H](O)CN1C[C@H]2CCCC[C@H]2C[C@H]1C(=O)NC(C)(C)C', 'not met'),
  ('CC(C)CN(C[C@@H](O)[C@H](Cc1ccccc1)NC(=O)O[C@H]1CCOC1)S(=O)(=O)c1ccc(N)cc1', 'not met'),
  ('COC(=O)N[C@H](C(=O)N[C@@H](Cc1ccccc1)[C@@H](O)CN(Cc1ccc(-c2ccccn2)cc1)NC(=O)[C@@H](NC(=O)OC)C(C)(C)C)C(C)(C)C', 'not met'),
  ('CC(C)(C)NC(=O)[C@@H]1CN(Cc2cccnc2)CCN1C[C@@H](O)C[C@@H](Cc1ccccc1)C(=O)N[C@H]1c2ccccc2C[C@H]1O', 'not met'),
  ('Cc1cccc(C)c1OCC(=O)N[C@@H](Cc1ccccc1)[C@@H](O)C[C@H](Cc1ccccc1)NC(=O)[C@H](C(C)C)N1CCCNC1=O', 'met'),
  ('CC(C)(C)NC(=O)[C@@H]1C[C@@H]2CCCC[C@@H]2CN1C[C@@H](O)[C@H](Cc1ccccc1)NC(=O)[C@H](CC(N)=O)NC(=O)c1ccc2ccccc2n1', 'not met');

---

# Target or test system: Dimer of Gag-Pol polyprotein [490-588,L523I,E525D,M526I,I544V,L553H,H559K,V572F,L579M] (Human immunodeficiency virus 1, UniProt P05959, E525D/H559K/I544V/L523I/L553H/L579M/M526I/V572F)
# Construct: 490-588
# Method summary: Protease Inhibition Assay
pKi: −log10 of the molar value.
Think of 8 as a floor: if pKi stands on it or above, it is 1; beneath it, -1.

INSERT INTO assay_data (smi, assigned_class) VALUES
  ('Cc1c(O)cccc1C(=O)N[C@@H](CSc1ccccc1)[C@H](O)CN1C[C@H]2CCCC[C@H]2C[C@H]1C(=O)NC(C)(C)C', -1),
  ('CC(C)CN(C[C@@H](O)[C@H](Cc1ccccc1)NC(=O)O[C@H]1CCOC1)S(=O)(=O)c1ccc(N)cc1', -1),
  ('CC(C)(C)NC(=O)[C@@H]1C[C@@H]2CCCC[C@@H]2CN1C[C@@H](O)[C@H](Cc1ccccc1)NC(=O)[C@H](CC(N)=O)NC(=O)c1ccc2ccccc2n1', -1),
  ('CC(C)(C)NC(=O)[C@@H]1CN(Cc2cccnc2)CCN1C[C@@H](O)C[C@@H](Cc1ccccc1)C(=O)N[C@H]1c2ccccc2C[C@H]1O', -1),
  ('COC(=O)N[C@H](C(=O)N[C@@H](Cc1ccccc1)[C@@H](O)CN(Cc1ccc(-c2ccccn2)cc1)NC(=O)[C@@H](NC(=O)OC)C(C)(C)C)C(C)(C)C', 1);
